Sourced from paper PMC12734683

Please go through the items and note down their K b.
system: d(5′‐CGCGAATTCGCG‐3′)2 (DNA, duplex) CGCGAATTCGCG; assay: ethidium bromide displacement fluorescence quenching, double-log plot; conditions: 100 mM phosphate (cation not given); pH 7.0, 298 K; 20 μM DNA, 5.2 μM ethidium bromide displaced; apparent

Could I get K b for every one of these entries?
1. Cc1ccc(C(C)C)cc1.Cc1ccc(C(C)C)cc1.[Ru+2].[Ru+2].[c-]1cccc2ccc3cccnc3c12.c1cc(-c2ccncc2)ccn1.c1cnc2c(c1)ccc1cccnc12
2. Cc1ccc(C(C)C)cc1.Cc1ccc(C(C)C)cc1.[Ru+2].[Ru+2].[c-]1cccc2ccc3cccnc3c12.[c-]1cccc2ccc3cccnc3c12.c1cc(CCc2ccncc2)ccn1
3. Cc1ccc(C(C)C)cc1.Cc1ccc(C(C)C)cc1.[Ru+2].[Ru+2].[c-]1cccc2ccc3cccnc3c12.c1cc(CCc2ccncc2)ccn1.c1cnc2c(c1)ccc1cccnc12
4. Cc1ccc(C(C)C)cc1.Cc1ccc(C(C)C)cc1.[Ru+2].[Ru+2].[c-]1cccc2ccc3cccnc3c12.[c-]1cccc2ccc3cccnc3c12.c1cc(-c2ccncc2)ccn1

Outgoing:
5.59 ± 0.21 × 10^3 M^-1
298.4 ± 4.3 × 10^3 M^-1
28.51 ± 0.97 × 10^3 M^-1
807.6 ± 19.9 × 10^3 M^-1

Could I get K b for every one of these entries?
1. Cc1ccc(C(C)C)cc1.Cc1ccc(C(C)C)cc1.[Ru+2].[Ru+2].[c-]1cccc2ccc3cccnc3c12.c1cc(CCCc2ccncc2)ccn1.c1cnc2c(c1)ccc1cccnc12
2. Cc1ccc(C(C)C)cc1.Cc1ccc(C(C)C)cc1.[Ru+2].[Ru+2].[c-]1cccc2ccc3cccnc3c12.[c-]1cccc2ccc3cccnc3c12.c1cc(CCCc2ccncc2)ccn1

Outgoing:
["6.70 ± 0.58 × 10^3 M^-1", "602.8 ± 76.1 × 10^3 M^-1"]

====

test system: A2780cis‐res; experiment: Cell growth assay (IncuCyte Zoom), cytotoxicity; assay type: cell-based, human; conditions: A2780cis‐res cells
reported-endpoint: IC50 (µM)
Answers are plain numbers, in µM.

Reported IC50 for N.N.[Cl][Pt][Cl] [cisplatin, reference compound] was 18.4
